Tested on: LOX IMVI melanoma
Experiment: NCI tumour cell line growth inhibition, 48 h; in the data active means GI50 below about 0.43 µM; inactive means the rest
Possible outcomes: yes (1) (active), no (0) (inactive)

Compound	Target of assay	Discrete label
O=C(/C=C/C12c3ccccc3C(c3ccccc31)C1C(=O)N(c3ccc(Cl)cc3)C(=O)C12)c1ccccn1 (centres undefined)	LOX IMVI melanoma	yes (1)
COC(=O)c1ccc2nc(-c3cc4ccccc4n3C)n(CCCCOc3cc4c(cc3OC)C(=O)N3CCC[C@H]3C=N4)c2c1	LOX IMVI melanoma	no (0)
Cc1ccc([P+](Cc2ccccc2)(c2ccccc2)c2ccccc2)cc1	LOX IMVI melanoma	no (0)
CCn1c(-c2nonc2N)nc2c(C#CC(C)(C)O)ncc(OC3CCNCC3)c21	LOX IMVI melanoma	no (0)
COc1cc2c3c(n(CCCN(CCCN(CCCn4c5c(c6ccccc6c4=O)C(=O)c4ccccc4-5)C(=O)OC(C)(C)C)C(=O)OC(C)(C)C)c(=O)c2cc1OC)-c1cc2c(cc1C3=O)OCO2	LOX IMVI melanoma	no (0)
COc1ccc(/C=C/C(=O)c2c(O)ccc3c(C)c(C(=O)O)oc23)cc1	LOX IMVI melanoma	no (0)
CN(C)C1CCN(Cc2ccc(NC(=O)c3cncc(C#Cc4cnc(N)c5ncccc45)c3)cc2C(F)(F)F)CC1	LOX IMVI melanoma	no (0)
O=C([O][Hg][c]1ccccc1)c1ccccc1	LOX IMVI melanoma	no (0)
Cc1ccc(C)c2c1C(=O)N(c1ccc(F)cc1F)C2=O	LOX IMVI melanoma	no (0)

====

Tested on: SR leukemia
Test: NCI tumour cell line growth inhibition, 48 h; in the data active means GI50 below about 0.43 µM; inactive means the rest
Outcomes: true for active, false for inactive

Compound	Discrete label
O=C(c1ccccc1)C(Cl)C(Cl)c1ccccc1 (stereo not drawn)	true
COc1ccc(-c2cc(/C=C3\C(=O)Nc4cc(Cl)ccc43)[nH]n2)cc1	false
COC(=O)c1ccc2nc(-c3cc4ccccc4n3C)n(CCCCOc3cc4c(cc3OC)C(=O)N3CCC[C@H]3C=N4)c2c1	false
OCc1ccc(-c2csc(-c3ccc(CO)o3)c2)o1	false
CN1CC=C(c2cc(NC(=O)Nc3ccc(Oc4ccnc(NC(=O)C5CC5)c4)c(F)c3)cc(C(F)(F)F)c2)CC1	true
CCCCCCCCCCCCCC[n+]1ccccc1	false
Cc1ccc([P+](Cc2ccccc2)(c2ccccc2)c2ccccc2)cc1	false
COc1cc2c3c(n(CCCN(CCCN(CCCn4c5c(c6ccccc6c4=O)C(=O)c4ccccc4-5)C(=O)OC(C)(C)C)C(=O)OC(C)(C)C)c(=O)c2cc1OC)-c1cc2c(cc1C3=O)OCO2	false
O=C(CCCn1c2c(sc3ccccc32)c(=O)n2nnc(-c3ccccc3)c12)NCCc1cnc[nH]1	true
CCCCCCC1N=C(N)N=C(N)N1c1cccc(Cl)c1 (stereo not drawn)	false
CS(=O)(=O)N1CCC(n2c(=O)c(Oc3ccc(F)cc3F)cc3cnc(NC4CCOCC4)nc32)CC1	false
COC(=O)c1cc(NC(=O)c2cc(NC(=O)c3cc([N+](=O)[O-])n(C)c3)cn2C)cn1C	false
CCN1CCC(CC(=O)Nc2n[nH]c3nnc(-c4cccc(F)c4F)cc23)CC1	false
CC(c1cc(Cl)ccc1O)c1cc(Cl)ccc1O	false
Oc1cc(N2CC2)c(O)cc1N1CC1	true
CNC(=O)c1nn(C)c2c1C(C)(C)Cc1cnc(Nc3cccc(N4CCN(C)CC4)c3)nc1-2	true
Cc1ccc(-c2nc3nc(-c4ccc(F)cc4)nc(N4CCNCC4)c3o2)cc1	true
NC(=O)c1cccc2c(N[C@H](CN3CCC3)c3ccc(Cl)c(C(F)(F)F)c3)ncnc12	false
